# Read-out: Heat shock 70 kDa protein 1 (HSPA1A), gene 3303
# MEASUREMENT PROTOCOL: LTEA_HepaRG_HSPA1A: Life Technologies and Expression Analysis (LTEA) Assay for Heat shock 70 kDa protein 1 (HSPA1A) using HepaRG (AID 2283502)
# CONDITION CONTEXT: mRNA level, 48 h; actives raise or lower the signal
The source made the active and inactive calls. How the source made its calls: active means hit-call score of the fitted dose curve at least 0.9, where 1 is the maximum; inactive means score below 0.9.
Reply using exactly one outcome from label 1 (active), label 0 (inactive)

• CC(=O)[C@H]1CC[C@H]2[C@@H]3CCC4=CC(=O)CC[C@]4(C)[C@H]3CC[C@]12C = label 1

Qu. Returns: the outcome recorded for CCCCC(CC)CN1C(=O)C2C3C=CC(C3)C2C1=O (centres undefined) in this assay.
Ans. label 0

Qu. How was `N[C@@H](Cc1cc(I)c(Oc2ccc(O)c(I)c2)c(I)c1)C(=O)O` classified in this test?
Ans. label 0

Qu. Test call for this compound, please: `CCN(Cc1c(F)cccc1Cl)c1c([N+](=O)[O-])cc(C(F)(F)F)cc1[N+](=O)[O-]`
Ans. label 1

Qu. Identify the outcome logged in this assay for the compound shown: `C#C[C@]1(O)CC[C@H]2[C@@H]3CCC4=CC(=O)CC[C@@H]4[C@H]3CC[C@@]21CC`
Ans. label 0

###

# MEASUREMENT PROTOCOL: BSK_4H_SRB: Viability Assessment in the BioMAP Diversity Plus: 4H Assay (AID 2283027);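 further: cells exposed to compound for 24 h before staining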
# CONDITION CONTEXT: primary human endothelial cells (HUVEC)
Calls of active or inactive are those of the source. Rule for the calls: active = hit-call score of the fitted dose curve at least 0.9, where 1 is the maximum; inactive = score below 0.9.
Lab note: assign the record to one of active, inactive

* COc1nc(C)nc(NC(=O)NS(=O)(=O)c2ccccc2OCCCl)n1 | inactive
* CSC(=O)c1cccc2nnsc12 | inactive
* S=C([S-])NCCNC(=S)[S-].[Mn+2] | inactive
* CCC(C)OC(=O)N1CCCCC1CCO (stereo not drawn) | inactive
* CCCOC(=O)c1ccc(C(=O)OCCC)nc1 | inactive
* N[C@@H](Cc1cc(I)c(Oc2ccc(O)c(I)c2)c(I)c1)C(=O)O | inactive

Qu. How was `CCCN(CCC)C(=O)SCC` classified in this test?
Ans. inactive

Qu. Please let me know the test result on file for CCCCCCC(C)OC(=O)COc1nc(F)c(Cl)c(N)c1Cl (stereo not drawn) .
Ans. active

Qu. Given CCC(O)=C1C(=O)CC(C(=O)O)CC1=O (stereo not drawn) , state the outcome it received in this test.
Ans. inactive

Qu. Hi team, can someone confirm the assay call for `CC(C)(c1ccc(O)cc1)c1ccc(O)cc1` ?
Ans. inactive

Qu. Dear all, I need the recorded test outcome for CCCCC(CC)COC(=O)c1ccccc1C(=O)O (stereo not drawn) , thank you.
Ans. inactive

Qu. What did the test return for `Cc1nn(C)c(Oc2ccccc2)c1C=NOCc1ccc(C(=O)OC(C)(C)C)cc1` ?
Ans. active

Qu. Per the assay record, what outcome was assigned to `COCCO` ?
Ans. inactive

###

# MEASUREMENT PROTOCOL: CCTE_Shafer_MEA_acute_per_burst_spike_number_mean: CCTE's Neural Acute Assay for Average Number of Spikes Per Burst, Shafer Lab (AID 2284015);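 further: hits are decreases in mean spikes per burst versus baseline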
# Experimental: CCTE_Shafer_MEA_acute assay is conducted using Axion Biosystems 48 well microelectrode array (MEA) plates and Maestro recording system. Each well of the MEA plate contains a grid of 16 microelectrodes embedded in the culture surface. Electrically active cells, such as neurons, can be cultured over the electrodes, and electrical activity in these cells can be recorded extracellularly. […]
Calls of active or inactive are those of the source. How the source made its calls: active means hit-call score of the fitted dose curve at least 0.9, where 1 is the maximum; inactive means score below 0.9.
PROPERTY NAME: AC50

The cases that follow already have their AC50 on record.
• O=C(c1ccccc1)C1CCCCC1 = inactive
• CSC(=O)c1cccc2nnsc12 = inactive
• CC(C)(C)[C@@H](O)[C@@H](Cc1ccc(Cl)cc1)n1cncn1 = inactive
• CCCCC(CC)CN1C(=O)C2C3C=CC(C3)C2C1=O (configuration not stated) = inactive

Just so you know, measured AC50 for `CC(C)CCCCCCc1ccc(O)cc1` came out at inactive

Documented AC50 of `O=C(O)c1ccccc1` : inactive

Input `C#CCOC(=O)[C@@H](C)Oc1ccc(Oc2ncc(Cl)cc2F)cc1` . Output AC50: inactive

The recorded AC50 for `N#CSCSc1nc2ccccc2s1` is 20 µM (active)

AC50 reported for this compound `Cc1nn(C)c(Oc2ccccc2)c1C=NOCc1ccc(C(=O)OC(C)(C)C)cc1` : 3.08 µM (active)

The recorded AC50 for `COC(=O)c1ccccc1C(=O)O` is inactive

Item: `CC(C)(c1ccc(O)cc1)c1ccc(O)cc1` | AC50: inactive

`OB(O)O` yielded AC50 of inactive
